SYSTEM_UNDER_TEST: 17β-hydroxysteroid dehydrogenase type 2 (Homo sapiens, UniProt P37059)
Construct: expressed in transfected cells; host or cells: MCF-7
Sequence (P37059 whole entry): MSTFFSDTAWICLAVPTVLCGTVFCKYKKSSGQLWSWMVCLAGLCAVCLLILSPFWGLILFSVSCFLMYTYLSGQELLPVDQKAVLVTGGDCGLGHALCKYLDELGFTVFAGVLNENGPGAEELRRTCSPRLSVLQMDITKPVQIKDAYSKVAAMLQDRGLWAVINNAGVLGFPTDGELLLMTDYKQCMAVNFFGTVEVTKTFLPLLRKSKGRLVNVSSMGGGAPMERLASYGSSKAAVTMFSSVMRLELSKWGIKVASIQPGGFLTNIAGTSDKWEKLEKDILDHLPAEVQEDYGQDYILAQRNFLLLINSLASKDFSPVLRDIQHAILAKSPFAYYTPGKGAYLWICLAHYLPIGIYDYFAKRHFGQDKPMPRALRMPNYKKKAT
EXPERIMENT_DESCRIPTION: Inhibition of 17β-HSD type 2 in MCF-7 cells stably expressing the isoenzyme (HPLC, tritium labeled estradiol)
Type: cell-based
CONDITION_DETAILS: MCF7, 10 μM compound, 2 nM estradiol, read-out: % Inhibition of the 17β-HSD enzyme type 2 (HSD2)

[
  {
    "COMPOUND": "CCCSC1=C(C=O)CCc2c1sc1nc3n(c(=O)c21)CCC(C(=O)OC)CC3 (stereo not drawn)",
    "inhibition at 10 µM": "17.7%"
  },
  {
    "COMPOUND": "CCCSC1=C(CO)CCc2c1sc1nc3n(c(=O)c21)CCCCC3",
    "inhibition at 10 µM": "36.7%"
  },
  {
    "COMPOUND": "O=CC1=C(Cl)c2sc3nc4n(c(=O)c3c2CC1)CCCCCC4C=O (stereo not drawn)",
    "inhibition at 10 µM": "28.3%"
  },
  {
    "COMPOUND": "Cc1nc2sc3c(c2c(=O)n1C)CCCC3",
    "inhibition at 10 µM": "24.9%"
  },
  {
    "COMPOUND": "O=C1CCCc2c1sc1nc3n(c(=O)c21)CCCCCC3",
    "inhibition at 10 µM": "11.1%"
  },
  {
    "COMPOUND": "CCOC(=O)C1CCCn2c1nc1sc3c(c1c2=O)CCCC3 (stereo not drawn)",
    "inhibition at 10 µM": "15.7%"
  },
  {
    "COMPOUND": "COC(=O)C1CCc2nc3sc4c(c3c(=O)n2CC1)CCC(C=O)=C4OC (stereo not drawn)",
    "inhibition at 10 µM": "19.3%"
  },
  {
    "COMPOUND": "CCCCSC1=C(C=O)CCc2c1sc1nc3n(c(=O)c21)CCCCC3",
    "inhibition at 10 µM": "15.1%"
  },
  {
    "COMPOUND": "CCCSC1=C(C=O)CCc2c1sc1nc3n(c(=O)c21)CCC(C)CC3 (stereo not drawn)",
    "inhibition at 10 µM": "-0.5%"
  },
  {
    "COMPOUND": "Cn1cnc2sc3c(c2c1=O)CCC(C=O)=C3Cl",
    "inhibition at 10 µM": "28.3%"
  },
  {
    "COMPOUND": "CCCSC1=C(C=O)CCc2c1sc1nc3n(c(=O)c21)CCC(C(=O)OCC)CC3 (stereo not drawn)",
    "inhibition at 10 µM": "16.1%"
  },
  {
    "COMPOUND": "CC1CCc2nc3sc4c(c3c(=O)n2CC1)CCC(C=O)=C4Cl (stereo not drawn)",
    "inhibition at 10 µM": "6.2%"
  },
  {
    "COMPOUND": "O=c1c2c3c(sc2nc2n1CCCCC2)C(Sc1ccccc1)=C(CO)CC3",
    "inhibition at 10 µM": "42.5%"
  },
  {
    "COMPOUND": "CC1CCc2c(sc3nc4n(c(=O)c23)CCCCC4)C1O (stereo not drawn)",
    "inhibition at 10 µM": "-5.1%"
  },
  {
    "COMPOUND": "O=CC1=C(Cl)c2sc3nc4n(c(=O)c3c2CC1)CCCCCC4",
    "inhibition at 10 µM": "1.5%"
  }
]
